The measured values listed here are drawn from patent US7786142B2.

system: MDAMB-231/U 251; experiment: Anti-cancer screen (MTT), MDAMB-231/U 251 cells; type: cell-based; details: MDAMB-231/U 251, 48 hours, concentrations tested 0.01-100 μM, read-out: LC50 (the source's name)
Examples of compounds with documented CC50 follow.
State the answer as a number, implicitly in µM.

Completed entries (count: 2):
COc1cc(CN2CCN(CC(O)COc3cccc4[nH]c5ccccc5c34)CC2)cc(OC)c1 (stereo not drawn) : 70
N#Cc1ccc(C(=O)N2CCC(NCC(O)COc3cccc4[nH]c5ccccc5c34)CC2)cn1 (stereo not drawn) : 57

Given the compound OC(CNCc1ccccc1)COc1cccc2[nH]c3ccccc3c12 (stereo not drawn) , write its reported CC50.
65

Given the compound COc1ccc(CNC[C@@H](O)COc2cccc3[nH]c4ccccc4c23)c(OC)c1 , write its reported CC50.
79

###

tested on: NCIH460, HCT116, MDAMB-231/U 251; test: Anti-cancer screen, mean GI50 over the cell lines; type: cell-based
Category key, based on recorded GI50: bottom bin (below 9 µM), middle bin (9 µM to below 20 µM), top bin (20 µM or more)

Which class is correct for the following compound? O=C(c1ccc([N+](=O)[O-])o1)N1CCN(CC(O)COc2cccc3[nH]c4ccccc4c23)CC1 (stereo not shown)
bottom bin

Which class is correct for the following compound? COc1ccc(CNC[C@H](O)COc2cccc3[nH]c4ccccc4c23)c(OC)c1
bottom bin

Which class is correct for the following compound? OC(CNCc1ccccc1)COc1cccc2[nH]c3ccccc3c12 (stereo not shown)
bottom bin

Which class is correct for the following compound? COc1cc(NCC(O)COc2cccc3[nH]c4ccccc4c23)cc(OC)c1OC (stereo not shown)
bottom bin

Which class is correct for the following compound? Cc1cccc2sc(NC(=O)CN3CCN(CC(O)COc4cccc5[nH]c6ccccc6c45)CC3)nc12 (stereo not shown)
top bin

Which class is correct for the following compound? N#Cc1ccc(C(=O)N2CCC(NCC(O)COc3cccc4[nH]c5ccccc5c34)CC2)cn1 (stereo not shown)
middle bin

###

parameter: melting point

O=C(c1ccc2c(c1)OCO2)N1CCC(NCC(O)COc2cccc3[nH]c4ccccc4c23)CC1 (stereo not shown) : 88 to 90 °C
COc1cccc2sc(NC(=O)CN3CCN(CC(O)COc4cccc5[nH]c6ccccc6c45)CC3)nc12 (stereo not shown) : 289 to 292 °C
O=C(Cc1c(F)c(F)c(F)c(F)c1F)N1CCC(NCC(O)COc2cccc3[nH]c4ccccc4c23)CC1 (stereo not shown) : 80 to 83 °C
O=C(c1ccc(-c2ccc([N+](=O)[O-])cc2)o1)N1CCN(CC(O)COc2cccc3[nH]c4ccccc4c23)CC1 (stereo not shown) : 101 to 104 °C
CC(=O)c1ccc(S(=O)(=O)N2CCN(CC(O)COc3cccc4[nH]c5ccccc5c34)CC2)cc1 (stereo not shown) : 183 to 185 °C
O=C(c1cccs1)N1CCN(CC(O)COc2cccc3[nH]c4ccccc4c23)CC1 (stereo not shown) : 80 to 83 °C

Note: attention shifts to another entry.
Given the compound O=C(c1ccc(Br)s1)N1CCN(CC(O)COc2cccc3[nH]c4ccccc4c23)CC1 (stereo not shown) , write its reported melting point.
78 to 80 °C

###

test system: MDAMB-231/U 251; assay: Anti-cancer screen (MTT), MDAMB-231/U 251 cells; assay type: cell-based; conditions: MDAMB-231/U 251, 48 hours, concentrations tested 0.01-100 μM
parameter: IC (TGI)

Completed entries (count: 3):
COc1cc(CN2CCN(CC(O)COc3cccc4[nH]c5ccccc5c34)CC2)cc(OC)c1 (centres unmarked) [Example 30] : 9 µM
COc1ccc(CNC[C@@H](O)COc2cccc3[nH]c4ccccc4c23)c(OC)c1 [Example 24] : 51 µM
O=[N+]([O-])c1ccc(CN2CCN(CC(O)COc3cccc4[nH]c5ccccc5c34)CC2)o1 (centres unmarked) [Example 26] : 85 µM

Given the compound COc1ccc(CNC[C@H](O)COc2cccc3[nH]c4ccccc4c23)c(OC)c1 [Example 25] , write its reported IC (TGI).
49 µM

Given the compound OC(COc1cccc2[nH]c3ccccc3c12)CN1CCCC1 (centres unmarked) [Example 6] , write its reported IC (TGI).
> 100 µM

Given the compound OC(COc1cccc2[nH]c3ccccc3c12)CN1CCc2sccc2C1 (centres unmarked) [Example 4] , write its reported IC (TGI).
59 µM

Given the compound OC(CNc1nc2ccccc2[nH]1)COc1cccc2[nH]c3ccccc3c12 (centres unmarked) [Example 19] , write its reported IC (TGI).
67 µM

Given the compound N#Cc1ccc(C(=O)N2CCC(NCC(O)COc3cccc4[nH]c5ccccc5c34)CC2)cn1 (centres unmarked) [Example 70] , write its reported IC (TGI).
8.9 µM
